Quick record: Ke, Delta-type opioid receptor (Homo sapiens) (UniProt P41143).
Give the value, in units of nM, as a plain number.

Example cases with answers are listed next.
Entry `COC(=O)[C@@H]1C[C@H](OC(=O)c2ccccc2)C[C@H]2[C@@]1(C)CC[C@H]1C(=O)O[C@H](c3ccoc3)C[C@]21C` ; Ke = 8780

For record `COC(=O)[C@@H]1CC(=O)C=C2[C@@]1(C)CC[C@H]1C(=O)O[C@H](c3ccoc3)C[C@]21C` the listed Ke is 3500

New cases:
Lab book: Ke of `COC(=O)[C@@H]1C[C@H](OC(=O)c2ccccc2)[C@H](O)[C@H]2[C@@]1(C)CC[C@H]1C(=O)O[C@H](c3ccoc3)C[C@]21C` noted as 2900

Lab book: Ke of `COC(=O)[C@@H]1C[C@H](OC(C)=O)[C@H](O)[C@H]2[C@@]1(C)CC[C@H]1C(=O)O[C@H](c3ccoc3)C[C@]21C` noted as 1790

// field: Ke; key: `COC(=O)[C@@H]1C[C@H](OC(C)=O)C[C@H]2[C@@]1(C)CC[C@H]1C(=O)O[C@H](c3ccoc3)C[C@]21C` ; value = 100

Field Ke (entry `COC(=O)[C@@H]1C[C@H](OC(C)=O)C=C2[C@@]1(C)CC[C@H]1C(=O)O[C@H](c3ccoc3)C[C@]21C` ) reads 400

Record `COC(=O)[C@@H]1C[C@H](OC(=O)c2ccccc2)C=C2[C@@]1(C)CC[C@H]1C(=O)O[C@H](c3ccoc3)C[C@]21C` , field Ke: 2300
